TARGET_OR_TEST_SYSTEM: anti-CD28 Fab (SEQ ID NOs: 696, 697)
Sequence (as listed by the source): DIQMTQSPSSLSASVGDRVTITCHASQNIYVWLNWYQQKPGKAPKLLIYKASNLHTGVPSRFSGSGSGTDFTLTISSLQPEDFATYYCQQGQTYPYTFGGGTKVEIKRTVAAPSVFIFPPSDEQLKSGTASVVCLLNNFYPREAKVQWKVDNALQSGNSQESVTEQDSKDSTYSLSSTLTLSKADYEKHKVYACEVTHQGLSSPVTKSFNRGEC
Sequence (as listed by the source): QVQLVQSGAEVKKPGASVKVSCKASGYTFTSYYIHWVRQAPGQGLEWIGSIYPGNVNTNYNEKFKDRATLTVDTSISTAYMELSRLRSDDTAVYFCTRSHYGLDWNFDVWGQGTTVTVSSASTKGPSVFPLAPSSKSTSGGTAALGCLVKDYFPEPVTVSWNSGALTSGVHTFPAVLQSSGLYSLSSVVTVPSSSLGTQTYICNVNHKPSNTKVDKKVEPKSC
ASSAY_PROTOCOL: anti-CD28 Fab binding to peptides, ELISA
ASSAY_CONDITIONS: Table 26; anti-CD28 Fab
Entries and their measured pEC50 follow.
// returns pEC50 (minus log10 of molar concentration), number only

Here's what some known entries look like.
[[record]]
sequence_entry = "YCEGHLPEYLEKCV [Peptide-133]"
attribute_measured = "pEC50"
result_number = 7.49

[[record]]
sequence_entry = "YCEGHAPEYIAKCL [Peptide-121]"
attribute_measured = "pEC50"
result_number = 8.15

[[record]]
sequence_entry = "YCEGHLPEYLAKCL [Peptide-127]"
attribute_measured = "pEC50"
result_number = 8.77


The reported anti-CD28 Fab (SEQ ID NOs: 696, 697) pEC50 of YCEGHSQENIWKCL [Peptide-124] is 7.55

The reported anti-CD28 Fab (SEQ ID NOs: 696, 697) pEC50 of YCEGHLPEYRNKCL [Peptide-132] is 8.49

The reported anti-CD28 Fab (SEQ ID NOs: 696, 697) pEC50 of YCEGHEGIYFWKCL [Peptide-119] is 6.89

The reported anti-CD28 Fab (SEQ ID NOs: 696, 697) pEC50 of YCEGHSPEYILKCL [Peptide-117] is 7.96

The reported anti-CD28 Fab (SEQ ID NOs: 696, 697) pEC50 of YCEGHAPEYIWKCL [Peptide-123] is 8.09

###

Entries and their measured Off rate t1/2 follow.
Tested on: PSMA Fab (SEQ ID NOs: 19, 20)
Sequence (as listed by the source): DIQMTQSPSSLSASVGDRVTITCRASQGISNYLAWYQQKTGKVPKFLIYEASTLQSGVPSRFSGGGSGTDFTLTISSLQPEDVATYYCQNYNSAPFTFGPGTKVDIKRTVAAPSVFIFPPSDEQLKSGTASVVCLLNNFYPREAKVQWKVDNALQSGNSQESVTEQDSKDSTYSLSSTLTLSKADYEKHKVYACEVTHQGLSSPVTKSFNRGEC
Sequence (as listed by the source): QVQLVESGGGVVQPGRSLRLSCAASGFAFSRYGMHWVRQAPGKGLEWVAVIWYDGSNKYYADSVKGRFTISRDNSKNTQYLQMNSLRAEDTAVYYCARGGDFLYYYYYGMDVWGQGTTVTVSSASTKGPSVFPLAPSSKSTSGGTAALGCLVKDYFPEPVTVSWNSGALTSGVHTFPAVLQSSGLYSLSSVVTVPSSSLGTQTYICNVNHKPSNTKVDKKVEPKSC
ASSAY_PROTOCOL: Kinetic binding of peptides to PSMA Fab, BLI
ASSAY_CONDITIONS: Table 39, 1:1 binding model

Here's what some known entries look like.
[[record]]
sequence_entry = "MCQWDELNYWMDCD [Peptide-202]"
target_or_test_system = "PSMA Fab (SEQ ID NOs: 19, 20)"
result = "<1 min"

[[record]]
sequence_entry = "IAVLCQPNWMCAGF [Peptide-180]"
target_or_test_system = "PSMA Fab (SEQ ID NOs: 19, 20)"
result = "0.75 min"

[[record]]
sequence_entry = "LMKWCTPRWMCAAE [Peptide-179]"
target_or_test_system = "PSMA Fab (SEQ ID NOs: 19, 20)"
result = "1.09 min"

[[record]]
sequence_entry = "SKLLCVPPWMCYHV [Peptide-194]"
target_or_test_system = "PSMA Fab (SEQ ID NOs: 19, 20)"
result = "<1 min"

[[record]]
sequence_entry = "MCQWDKINYWMDCD [Peptide-205]"
target_or_test_system = "PSMA Fab (SEQ ID NOs: 19, 20)"
result = "<1 min"


Reported Off rate t1/2 for QCTWNEKTWWMECE [Peptide-204] was <1 min

###

TARGET_OR_TEST_SYSTEM: PSMA Fab (SEQ ID NOs: 19, 20) binding to the PSMA antigen
Sequence (Q04609 whole entry partner): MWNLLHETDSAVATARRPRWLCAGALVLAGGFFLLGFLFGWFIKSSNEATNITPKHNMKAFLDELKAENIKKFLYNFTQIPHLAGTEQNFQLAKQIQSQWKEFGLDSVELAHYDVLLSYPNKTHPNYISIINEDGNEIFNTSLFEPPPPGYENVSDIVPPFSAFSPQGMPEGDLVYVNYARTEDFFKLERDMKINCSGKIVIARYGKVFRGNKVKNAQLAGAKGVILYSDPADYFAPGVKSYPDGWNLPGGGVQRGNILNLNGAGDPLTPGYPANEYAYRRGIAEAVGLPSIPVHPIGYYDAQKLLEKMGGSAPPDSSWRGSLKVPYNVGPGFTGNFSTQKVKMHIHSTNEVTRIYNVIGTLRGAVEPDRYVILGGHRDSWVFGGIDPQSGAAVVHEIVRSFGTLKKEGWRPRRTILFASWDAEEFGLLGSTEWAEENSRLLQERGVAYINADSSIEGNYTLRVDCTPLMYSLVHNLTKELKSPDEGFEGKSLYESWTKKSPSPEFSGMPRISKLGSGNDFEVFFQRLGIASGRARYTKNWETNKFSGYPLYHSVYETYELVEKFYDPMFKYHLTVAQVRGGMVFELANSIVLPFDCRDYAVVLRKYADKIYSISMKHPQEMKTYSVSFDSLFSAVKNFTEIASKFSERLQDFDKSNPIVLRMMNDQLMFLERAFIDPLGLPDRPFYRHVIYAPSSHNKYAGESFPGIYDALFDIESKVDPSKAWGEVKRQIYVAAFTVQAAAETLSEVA
ASSAY_PROTOCOL: Inhibition of PSMA Fab binding to PSMA by peptides, competition ELISA (incl. alanine scanning)
ASSAY_CONDITIONS: Table 43; SAR guided optimization phage library of peptide-179
pIC50: −log10 of the molar value.
ATTRIBUTE_MEASURED: pIC50

Reported pIC50 for EPKWCVPRGLCNYD [Peptide-240] was < 4.00
